Reference source: patent US11414404B2

Target System: P-gp (MDR1) (Homo sapiens (Human), UniProt P08183)
Sequence (P08183 whole entry, species assumed): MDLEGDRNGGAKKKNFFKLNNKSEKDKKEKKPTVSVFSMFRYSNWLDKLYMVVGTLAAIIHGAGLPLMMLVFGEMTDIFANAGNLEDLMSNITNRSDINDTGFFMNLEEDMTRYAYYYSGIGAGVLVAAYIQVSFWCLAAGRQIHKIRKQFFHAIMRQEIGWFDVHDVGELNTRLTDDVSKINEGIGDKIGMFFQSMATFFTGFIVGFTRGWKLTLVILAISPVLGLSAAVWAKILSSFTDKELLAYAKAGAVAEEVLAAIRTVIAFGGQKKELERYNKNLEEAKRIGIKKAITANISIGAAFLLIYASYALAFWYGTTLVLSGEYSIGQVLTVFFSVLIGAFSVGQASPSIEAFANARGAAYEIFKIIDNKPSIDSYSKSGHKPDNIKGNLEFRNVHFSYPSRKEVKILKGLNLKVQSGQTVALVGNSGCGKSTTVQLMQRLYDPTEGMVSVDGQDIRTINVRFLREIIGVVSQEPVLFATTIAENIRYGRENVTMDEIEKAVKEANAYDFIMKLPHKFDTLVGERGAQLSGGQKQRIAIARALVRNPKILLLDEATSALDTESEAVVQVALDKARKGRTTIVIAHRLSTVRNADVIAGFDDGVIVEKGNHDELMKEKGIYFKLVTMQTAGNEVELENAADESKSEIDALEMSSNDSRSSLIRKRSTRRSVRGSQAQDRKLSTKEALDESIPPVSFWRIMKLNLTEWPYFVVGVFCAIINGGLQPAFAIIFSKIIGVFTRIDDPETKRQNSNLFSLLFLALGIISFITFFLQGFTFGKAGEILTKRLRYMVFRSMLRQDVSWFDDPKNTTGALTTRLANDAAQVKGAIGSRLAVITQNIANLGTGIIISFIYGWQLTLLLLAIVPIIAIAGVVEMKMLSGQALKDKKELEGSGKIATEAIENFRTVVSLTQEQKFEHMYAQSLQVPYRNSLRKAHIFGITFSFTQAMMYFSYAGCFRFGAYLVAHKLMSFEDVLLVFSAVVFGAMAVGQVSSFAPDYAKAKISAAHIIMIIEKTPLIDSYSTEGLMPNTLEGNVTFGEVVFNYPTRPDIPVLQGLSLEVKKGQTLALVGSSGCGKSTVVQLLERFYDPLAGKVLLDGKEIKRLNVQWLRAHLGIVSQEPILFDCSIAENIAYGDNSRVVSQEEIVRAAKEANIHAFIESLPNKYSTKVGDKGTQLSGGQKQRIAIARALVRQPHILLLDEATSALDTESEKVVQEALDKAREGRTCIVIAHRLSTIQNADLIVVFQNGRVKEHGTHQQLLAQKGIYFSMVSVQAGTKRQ
Protocol Description: MDR1 LLC-PK1 permeability assay: efflux ratio
Applied Conditions: pig, LLC-PK1
Structures can show the parent of a compound that is named as a salt.
Readout: efflux ratio at 2 h, 1 µM

| Compound | efflux ratio at 2 h, 1 µM |
| --- | --- |
| Cc1c(Nc2c(F)c(F)cc(NS(=O)(=O)CCCF)c2F)ccc2ncn(C)c(=O)c12 | 4.68 |
| Cc1c(Oc2c(F)ccc(NS(=O)(=O)CCCF)c2F)ccc2ncn(C)c(=O)c12 | 2.81 |
| CCCS(=O)(=O)Nc1ccc(F)c(Nc2ccc3ncn([C@H]4CCOC4)c(=O)c3c2C)c1Cl [Example 35, trifluoroacetate] | 1.92 |
| CCCS(=O)(=O)Nc1cc(Cl)cc(Nc2ccc3ncn(C)c(=O)c3c2C)c1F | 1.35 |
| CCCS(=O)(=O)Nc1ncc(F)c(Oc2ccc3ncn(C)c(=O)c3c2C)c1F | 2.3 |
| Cc1c(Nc2c(F)ccc(NS(=O)(=O)N3CC[C@@H](F)C3)c2Cl)ccc2ncn(C)c(=O)c12 | 1.63 |

Can you give me efflux ratio at 2 h, 1 µM for all of these, one by one?
1. Cc1c(Nc2c(F)ccc(NS(=O)(=O)c3cc(F)ccc3F)c2Cl)ccc2ncn(C)c(=O)c12
2. CCCS(=O)(=O)Nc1ccc(F)c(Sc2ccc3ncn(C)c(=O)c3c2C)c1Cl
3. CCCS(=O)(=O)Nc1ccc(F)c(Nc2ccc3ncn(C)c(=O)c3c2C)c1C#N

Result:
1: 1.82; 2: 1.4; 3: 6.46

Can you give me efflux ratio at 2 h, 1 µM for all of these, one by one?
1. CCCS(=O)(=O)Nc1ccc(F)c(Nc2ccc3ncn(Cc4ccccc4)c(=O)c3c2C)c1Cl
2. CCCS(=O)(=O)Nc1ccc(F)c(Nc2ccc3ncn(C)c(=O)c3c2C)c1F
3. CCCS(=O)(=O)Nc1cccc(Nc2ccc3ncn(C)c(=O)c3c2C)c1Cl
4. CCCS(=O)(=O)Nc1cccc(Oc2ccc3ncn(C)c(=O)c3c2C)c1Cl
5. Cc1c(Nc2c(F)ccc(NS(=O)(=O)c3ccccc3)c2Cl)ccc2ncn(C)c(=O)c12

Result:
1. 1.61
2. 1.68
3. 1.37
4. 1.16
5. 1.24

Can you give me efflux ratio at 2 h, 1 µM for all of these, one by one?
1. Cn1cnc2ccc(Nc3c(F)ccc(NS(=O)(=O)CCCF)c3Cl)c(Cl)c2c1=O [WO 2012/118492 Ex. 37, reference compound]
2. CCCS(=O)(=O)Nc1ccc(F)c(Nc2ccc3ncn(CC4CC4)c(=O)c3c2C)c1Cl

Result:
1: 1.9; 2: 1.15

---

Target System: full-length FLAG-tagged B-Raf(V600E) (Homo sapiens (Human), UniProt P15056, V600E)
Sequence (P15056 whole entry V600E): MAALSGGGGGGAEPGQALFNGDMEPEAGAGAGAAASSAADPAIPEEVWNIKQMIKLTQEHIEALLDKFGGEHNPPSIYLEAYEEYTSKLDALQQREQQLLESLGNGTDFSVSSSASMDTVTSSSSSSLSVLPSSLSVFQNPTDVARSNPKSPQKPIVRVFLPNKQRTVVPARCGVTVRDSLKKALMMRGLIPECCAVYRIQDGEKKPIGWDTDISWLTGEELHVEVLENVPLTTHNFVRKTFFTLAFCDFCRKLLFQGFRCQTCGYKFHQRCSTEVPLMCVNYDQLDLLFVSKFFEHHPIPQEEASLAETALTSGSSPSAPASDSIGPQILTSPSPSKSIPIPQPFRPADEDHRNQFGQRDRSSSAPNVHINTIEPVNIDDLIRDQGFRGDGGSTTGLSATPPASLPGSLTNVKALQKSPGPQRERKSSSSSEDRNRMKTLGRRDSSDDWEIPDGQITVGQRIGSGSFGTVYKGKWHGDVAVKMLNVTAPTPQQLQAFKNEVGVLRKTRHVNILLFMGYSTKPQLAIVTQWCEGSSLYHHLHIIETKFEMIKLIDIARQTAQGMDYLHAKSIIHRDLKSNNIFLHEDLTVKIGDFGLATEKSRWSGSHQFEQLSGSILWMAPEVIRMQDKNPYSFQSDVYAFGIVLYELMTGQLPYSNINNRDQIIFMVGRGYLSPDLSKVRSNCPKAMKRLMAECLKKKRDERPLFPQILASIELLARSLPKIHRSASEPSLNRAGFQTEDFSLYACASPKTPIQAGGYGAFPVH
Protocol Description: BRAF V600E enzyme assay (TR-FRET competitive displacement of fluorescent tracer)
Type: binding
Applied Conditions: averaged IC50; 60 min at ambient temperature; 11-point dosing, top dose 10 μM
Readout: pIC50
Numbers only, as −log10 of the molar value.

| Entry Smiles | Readout | Measured Result |
| --- | --- | --- |
| Cc1c(Nc2c(F)ccc(NS(=O)(=O)N3CCCC3)c2Cl)ccc2ncn(C)c(=O)c12 | pIC50 | 7.46 |
| CCCS(=O)(=O)Nc1nccc(Oc2ccc3ncn(C)c(=O)c3c2C)c1Cl | pIC50 | 7.02 |
| Cc1c(Nc2c(F)cnc(NS(=O)(=O)CCCF)c2F)ccc2ncn(C)c(=O)c12 | pIC50 | 8.01 |

pIC50 in this record for CCCS(=O)(=O)Nc1ccc(F)c(Nc2ccc3ncn(CCOC)c(=O)c3c2C)c1Cl : 7.34

---

Target System: UniProt P08183
Protocol Description: MDR1 LLC-PK1 permeability assay: efflux ratio
Applied Conditions: pig, LLC-PK1
For each of the compounds below, state its efflux ratio at 2 h, 1 µM.

| Entry Smiles | Target System | efflux ratio at 2 h, 1 µM |
| --- | --- | --- |
| C#Cc1c(Nc2c(F)ccc(NS(=O)(=O)CCC)c2Cl)ccc2ncn(C)c(=O)c12 | UniProt P08183 | 2.3 |
| CCCS(=O)(=O)Nc1cc(F)c(F)c(Nc2ccc3ncn(C)c(=O)c3c2C)c1Cl | UniProt P08183 | 1.3 |
| CCCS(=O)(=O)Nc1ccc(F)c(Oc2ccc3ncn(C)c(=O)c3c2C)c1C#N | UniProt P08183 | 4.1 |

--- query ---
The compound CCCS(=O)(=O)Nc1cc(F)cc(Nc2ccc3ncn(C)c(=O)c3c2C)c1F , when measured on UniProt P08183, yielded efflux ratio at 2 h, 1 µM of 1.65

---

Target System: N-terminally GST-tagged B-Raf(V600K) (Homo sapiens, UniProt P15056, V600K)
Sequence (P15056 2-766 V600K limits assumed): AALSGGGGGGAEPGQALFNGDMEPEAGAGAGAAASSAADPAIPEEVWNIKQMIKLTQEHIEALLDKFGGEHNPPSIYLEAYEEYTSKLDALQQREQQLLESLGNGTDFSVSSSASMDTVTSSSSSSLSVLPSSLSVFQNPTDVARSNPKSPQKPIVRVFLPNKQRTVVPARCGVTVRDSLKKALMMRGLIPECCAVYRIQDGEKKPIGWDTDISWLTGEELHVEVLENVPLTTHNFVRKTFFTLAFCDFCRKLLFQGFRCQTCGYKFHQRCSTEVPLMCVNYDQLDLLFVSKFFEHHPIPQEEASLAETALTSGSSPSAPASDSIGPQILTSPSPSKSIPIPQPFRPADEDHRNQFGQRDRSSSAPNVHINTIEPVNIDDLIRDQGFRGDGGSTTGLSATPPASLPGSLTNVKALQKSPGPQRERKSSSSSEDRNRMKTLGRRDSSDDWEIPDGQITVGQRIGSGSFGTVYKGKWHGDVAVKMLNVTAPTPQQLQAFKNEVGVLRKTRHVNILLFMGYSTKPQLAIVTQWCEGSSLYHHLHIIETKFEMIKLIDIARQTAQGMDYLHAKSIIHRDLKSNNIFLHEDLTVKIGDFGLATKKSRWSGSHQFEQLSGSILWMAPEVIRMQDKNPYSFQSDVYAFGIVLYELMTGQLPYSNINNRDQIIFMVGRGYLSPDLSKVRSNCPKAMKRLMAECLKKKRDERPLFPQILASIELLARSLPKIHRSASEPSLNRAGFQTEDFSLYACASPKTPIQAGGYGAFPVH
Protocol Description: BRAF V600K enzyme assay (TR-FRET competitive displacement of fluorescent tracer)
Applied Conditions: averaged IC50; 60 min at ambient temperature; 11-point dosing, top dose 10 μM
Cut-off 8 nM on IC50: below means Criterion met, at or above means Criterion not met.

| Entry Smiles | Class Label |
| --- | --- |
| CCCS(=O)(=O)Nc1cc(F)c(F)c(Nc2ccc3ncn(C)c(=O)c3c2C)c1Cl | Criterion met |
| CCCS(=O)(=O)Nc1ccc(F)c(Nc2ccc3ncn(C)c(=O)c3c2C)c1Cl | Criterion met |
| CCCS(=O)(=O)Nc1ccc(F)c(Nc2ccc3ncn(C)c(=O)c3c2C)c1F | Criterion not met |

// switching to the query compound
Ask: Say whether its IC50 is strictly beneath 8 nM. Entry: Cc1c(Oc2c(F)ccc(NS(=O)(=O)CCCF)c2Cl)ccc2ncn(C)c(=O)c12
Result: Criterion met

---

Target System: BCRP (Homo sapiens (Human), UniProt Q9UNQ0)
Sequence (Q9UNQ0 whole entry, species assumed): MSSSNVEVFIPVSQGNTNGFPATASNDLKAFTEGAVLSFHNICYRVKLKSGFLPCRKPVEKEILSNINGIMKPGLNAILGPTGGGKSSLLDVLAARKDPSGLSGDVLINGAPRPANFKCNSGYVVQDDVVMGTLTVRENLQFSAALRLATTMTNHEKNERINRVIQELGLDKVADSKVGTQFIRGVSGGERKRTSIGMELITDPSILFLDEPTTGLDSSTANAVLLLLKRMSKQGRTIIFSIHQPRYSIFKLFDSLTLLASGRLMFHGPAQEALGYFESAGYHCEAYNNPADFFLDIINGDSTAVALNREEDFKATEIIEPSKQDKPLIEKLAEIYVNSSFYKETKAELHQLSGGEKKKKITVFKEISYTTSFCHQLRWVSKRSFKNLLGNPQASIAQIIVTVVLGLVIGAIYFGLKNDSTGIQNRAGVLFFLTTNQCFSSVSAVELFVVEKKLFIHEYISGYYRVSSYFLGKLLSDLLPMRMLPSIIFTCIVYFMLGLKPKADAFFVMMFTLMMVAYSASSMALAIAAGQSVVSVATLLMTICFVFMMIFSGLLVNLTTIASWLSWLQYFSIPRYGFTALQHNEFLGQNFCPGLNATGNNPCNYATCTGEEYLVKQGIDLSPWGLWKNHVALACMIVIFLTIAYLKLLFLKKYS
Protocol Description: BCRP MDCKII permeability assay: efflux ratio
Applied Conditions: dog
Readout: efflux ratio at 2 h, 1 µM
Answers are plain numbers.

Use the examples below as a reference point.
| Compound | efflux ratio at 2 h, 1 µM |
| --- | --- |
| CCCS(=O)(=O)Nc1ccc(F)c(Nc2ccc3ncn(CCOC)c(=O)c3c2C)c1Cl | 1.92 |
| CCC(C)S(=O)(=O)Nc1ccc(F)c(Nc2ccc3ncn(C)c(=O)c3c2C)c1Cl (stereo not shown) | 0.84 |
| CCCS(=O)(=O)Nc1ccc(F)c(Oc2ccc3ncn(C)c(=O)c3c2C)c1C#N | 23.8 |

efflux ratio at 2 h, 1 µM in this record for Cc1c(Oc2c(F)ccc(NS(=O)(=O)CCCF)c2F)ccc2ncn(C)c(=O)c12 : 3.14

---

Target System: full-length FLAG-tagged B-Raf(V600E) (Homo sapiens (Human), UniProt P15056, V600E)
Protocol Description: BRAF V600E enzyme assay (TR-FRET competitive displacement of fluorescent tracer)
Type: binding
Readout: pIC50
Give bare numbers, as −log10 of the molar value.

pIC50 in this record for [2H]C([2H])([2H])n1cnc2ccc(Nc3c(F)ccc(NS(=O)(=O)CCC)c3Cl)c(C)c2c1=O : 8.04

---

Target System: P-gp (MDR1) (Homo sapiens (Human), UniProt P08183)
Protocol Description: MDR1 LLC-PK1 permeability assay: efflux ratio
Applied Conditions: pig, LLC-PK1
Where a name gives a salt, the structure may show the parent alone.
For each of the molecules below, state its efflux ratio at 2 h, 1 µM.
One number for each entry.

| Molecule | Target System | efflux ratio at 2 h, 1 µM |
| --- | --- | --- |
| CCCS(=O)(=O)Nc1ccc(F)c(Nc2ccc3ncn(C)c(=O)c3c2C)c1Cl | P-gp (MDR1) (Homo sapiens (Human), UniProt P08183) | 1.26 |
| CCCS(=O)(=O)Nc1cccc(Oc2ccc3ncn(C)c(=O)c3c2C)c1C#N | P-gp (MDR1) (Homo sapiens (Human), UniProt P08183) | 1.7 |
| Cc1c(Nc2c(F)cnc(NS(=O)(=O)CCCF)c2Cl)ccc2ncn(C)c(=O)c12 | P-gp (MDR1) (Homo sapiens (Human), UniProt P08183) | 3.24 |
| CCCS(=O)(=O)Nc1ccc(F)c(Nc2ccc3ncn(C4CC4)c(=O)c3c2C)c1Cl [Example 31, trifluoroacetate] | P-gp (MDR1) (Homo sapiens (Human), UniProt P08183) | 1.59 |
| CCCS(=O)(=O)Nc1ccc(F)c(Nc2ccc3ncn(C4CCC4)c(=O)c3c2C)c1Cl [Example 33, trifluoroacetate] | P-gp (MDR1) (Homo sapiens (Human), UniProt P08183) | 1.2 |
| CCCS(=O)(=O)Nc1ccc(F)c(Nc2ccc3ncn(C4CCCC4)c(=O)c3c2C)c1Cl [Example 39, trifluoroacetate] | P-gp (MDR1) (Homo sapiens (Human), UniProt P08183) | 1.29 |
| CCC(C)S(=O)(=O)Nc1ccc(F)c(Nc2ccc3ncn(C)c(=O)c3c2C)c1Cl (stereo not shown) | P-gp (MDR1) (Homo sapiens (Human), UniProt P08183) | 1.2 |
| CCCS(=O)(=O)Nc1ccc(F)c(Oc2ccc3ncn(C)c(=O)c3c2C)c1F | P-gp (MDR1) (Homo sapiens (Human), UniProt P08183) | 2.4 |

Can you give me efflux ratio at 2 h, 1 µM for all of these, one by one?
1. CCCS(=O)(=O)Nc1ccc(F)c(Nc2ccc3ncn(C(C)C)c(=O)c3c2C)c1Cl [Example 36, trifluoroacetate]
2. Cc1c(Nc2c(F)ccc(NS(=O)(=O)N3CCCC3)c2Cl)ccc2ncn(C)c(=O)c12

Result:
1.17
1.22

Can you give me efflux ratio at 2 h, 1 µM for all of these, one by one?
1. CCCS(=O)(=O)Nc1cc(F)c(F)c(Oc2ccc3ncn(C)c(=O)c3c2C)c1F
2. Cc1c(Oc2cc(F)cc(NS(=O)(=O)CCCF)c2F)ccc2ncn(C)c(=O)c12
3. Cc1c(Oc2c(F)cnc(NS(=O)(=O)CCCF)c2F)ccc2ncn(C)c(=O)c12

Result:
1.86
1.91
10.9
